Please provide measured MIC Enterococcus faecalis (ATCC 29212) for the entries that follow.
System: Enterococcus sp.
Assay: in vitro antibacterial evaluation, MIC by broth dilution
Type: cell-based
Conditions: Enterococcus faecalis (ATCC 29212); broth dilution, 18 hours at 35° C.
# number only, unit µg/mL dropped from output

Just so you know, measured MIC Enterococcus faecalis (ATCC 29212) for CC(c1ccccc1)C1NC(=O)CNC(=O)C(CO)NC(=O)C(C(O)C2CNC(=N)N2C2OC(CO)C(O)C(O)C2O)NC(=O)C(C(O)C2CNC(=N)N2)NC(=O)C(Cc2ccc(OC3OC(CO)C(OC4OC5COC(Cc6ccc(F)cc6)OC5C(O)C4O)C(O)C3O)cc2)NC1=O (stereo not shown) came out at 2

Just so you know, measured MIC Enterococcus faecalis (ATCC 29212) for N=C1NCC(C(O)C2NC(=O)C(Cc3ccc(OC4OC(CO)C(OC5OC6COC7(OC6C6OC8(OC56)C5CC6CC(C5)CC8C6)C5CC6CC(C5)CC7C6)C(O)C4O)cc3)NC(=O)C(CC3CCCCC3)NC(=O)CNC(=O)C(CO)NC(=O)C(C(O)C3CNC(=N)N3C3OC(CO)C(O)C(O)C3O)NC2=O)N1 (stereo not shown) [Example 106b] came out at 8

Just so you know, measured MIC Enterococcus faecalis (ATCC 29212) for CCOc1cc(C2OCC3OC(OC4C(CO)OC(Oc5ccc(CC6NC(=O)C(C(C)c7ccccc7)NC(=O)CNC(=O)C(CO)NC(=O)C(C(O)C7CNC(=N)N7C7OC(CO)C(O)C(O)C7O)NC(=O)C(C(O)C7CNC(=N)N7)NC6=O)cc5)C(O)C4O)C(O)C(O)C3O2)ccc1OC (stereo not shown) came out at 32

Just so you know, measured MIC Enterococcus faecalis (ATCC 29212) for CC(c1ccccc1)C1NC(=O)CNC(=O)C(CO)NC(=O)C(C(O)C2CN(Cc3ccc(C(C)(C)C)cc3)C(=N)N2C2OC(CO)C(O)C(O)C2O)NC(=O)C(C(O)C2CNC(=N)N2)NC(=O)C(Cc2ccc(OC3OC(CO)C(OC4OC5COC6(OC5C(O)C4O)C4CC5CC(C4)CC6C5)C(O)C3O)cc2)NC1=O (stereo not shown) came out at 16
